target: Dnmt3a-CD (UniProt O88508 608-908); experiment: BLI; 100 uM AdoHcy; BLI: 20 mM HEPES-NaOH pH 7.5, 100 mM KCl, 1 mM EDTA, 0.2 mM DTT, 100 uM AdoHcy, 5% glycerol, 0.02% Tween-20, 0.5 mg/mL BSA, 25 C; inhibition: buffer A (20 mM HEPES-NaOH pH 7.5, 100 mM KCl, 1 mM EDTA, 1 mM DTT) with 25 uM AdoMet, 37 C; FP: buffer A; conditions: protein: recombinant; tags: N-terminal 6xHis; chain copies: 2; label: 5' biotin
Sequence (O88508 608-908): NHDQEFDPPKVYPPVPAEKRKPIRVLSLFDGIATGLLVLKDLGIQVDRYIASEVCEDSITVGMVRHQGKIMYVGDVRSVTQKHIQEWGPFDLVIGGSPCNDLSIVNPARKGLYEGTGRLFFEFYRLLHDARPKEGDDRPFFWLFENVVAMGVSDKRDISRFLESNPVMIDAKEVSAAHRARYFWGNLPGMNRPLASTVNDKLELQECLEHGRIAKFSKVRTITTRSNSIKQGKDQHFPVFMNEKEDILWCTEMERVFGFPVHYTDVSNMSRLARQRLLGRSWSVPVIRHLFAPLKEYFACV
PROPERTY: Kd (nM)

BINDER	U	READOUT NUMBER
CTCCGCCCCCGCGCGCCCCGGCCC (ssDNA) [MGMT-C-bio]	nM	211
